# system name: CNN2; further: reference of the scale not given here
# protocol description: pooled miR-30 sensor sort-seq; sequence = guide strand
# measurement context: shRNA
Where sensor-assay potency score (higher = more potent) equals or exceeds -0.1, the correct label is satisfied; where it does not, the label is not satisfied.

[
  {
    "construct sequence": "TGTAGCTTGTTCATGAGTGTGC",
    "class name": "satisfied"
  },
  {
    "construct sequence": "TCTGTTGGTCTGAAGGTCCTAG",
    "class name": "satisfied"
  },
  {
    "construct sequence": "TAGCTGGTGCCAGTTCTGCATG",
    "class name": "not satisfied"
  },
  {
    "construct sequence": "TGGCTGGCACACTTGTTCGTGC",
    "class name": "not satisfied"
  },
  {
    "construct sequence": "TTGGACAGGAGCCGGTTCTTGA",
    "class name": "not satisfied"
  },
  {
    "construct sequence": "AATACTTCCTGAAACTTGCGGG",
    "class name": "satisfied"
  },
  {
    "construct sequence": "TTGGACAGGTTTTCTAGCTGGT",
    "class name": "satisfied"
  },
  {
    "construct sequence": "TGTCACACTTGTCGGTTCCCAG",
    "class name": "not satisfied"
  },
  {
    "construct sequence": "TAGCTTGTTCATGAGTGTGCAT",
    "class name": "not satisfied"
  },
  {
    "construct sequence": "TAGCACTCTCTCCACTGTCCTT",
    "class name": "not satisfied"
  },
  {
    "construct sequence": "TTGACTGGCAGCACTGAACGGG",
    "class name": "not satisfied"
  },
  {
    "construct sequence": "ATGAGTGTGCATAAGATAGTTC",
    "class name": "not satisfied"
  },
  {
    "construct sequence": "TCATAGAGATGCCTTCTCGTGC",
    "class name": "not satisfied"
  },
  {
    "construct sequence": "TAGAGATGCCTTCTCGTGCCGT",
    "class name": "satisfied"
  }
]
